Hey, just so you know, these numbers are from PubChem BioAssay AID1159580.

- Test Description: chemical genetic growth profiling, strain panel (AID 1159580);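 further: tested at 20 µM; growth read once vehicle control cultures reached saturation at 30 °C; lower values mean less growth of the strain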
- Stated Conditions: S. cerevisiae deletion strains, growth OD, locus YLR102C, strain apc9
Among all 5,500 compounds or so, about 2,000 (36%) were called active. About 18% were inconclusive and are not listed. No stated cut-off is given here; in the data, active means normalized growth mostly below about 0.91 (no sharp cut-off); inconclusive means no clear call, values can overlap the other calls; inactive means mostly above about 0.92. Some of the results follow.
Form entry, call: pick from active, inactive

Here are 8 compounds together with their reported answers.
INSERT INTO results (compound, group_label) VALUES
  ('CC(C)OC(=O)Nc1cccc(Cl)c1', 'inactive'),
  ('NS(=O)(=O)c1cc2c(cc1Cl)NCNS2(=O)=O', 'inactive'),
  ('CC(C)N1C(=O)c2ccccc2NS1(=O)=O', 'inactive'),
  ('CC(=O)O[C@@H]1C2CC[C@@H]3C1(C[C@@H](O)[C@@]1(O)[C@@H](C[C@H](O)C1(C)C)[C@]3(C)O)C[C@@]2(C)O (some centres not stated)', 'inactive'),
  ('O=C(O)c1cccnc1C(=O)O', 'inactive'),
  ('OC[C@H]1O[C@@H](Oc2ccc(O)cc2)[C@H](O)[C@@H](O)[C@@H]1O', 'inactive'),
  ('CC(=O)Nc1c(I)cc(I)c(C(=O)O)c1I', 'inactive'),
  ('CNC(=O)Oc1cccc2c1OC(C)(C)C2', 'inactive');

How did this test come out for CC(=O)Oc1c(C)c(C)c2c(c1C)CCC(C)(CCCC(C)CCCC(C)CCCC(C)C)O2 (configuration not stated) ?
inactive

How did this test come out for CC(NC(C)(C)C)C(=O)c1cccc(Cl)c1 (configuration not stated) ?
inactive

Status in this test for O=C1C=CC(=O)c2c(O)cccc21 ?
inactive

Test call for this compound, please: COc1ccc(-c2c(OC)c3c(OC)c4c(cc3oc2=O)OC(C)(C)C=C4)cc1
inactive

In this assay, the call recorded for COC(=O)C[C@H]1C(C)(C)[C@@H](OC(C)=O)[C@@H]2CC3=C4CC(=O)O[C@@H](c5ccoc5)[C@]4(C)CCC3[C@@]1(C)C2=O (some centres not stated) was what?
inactive

Answer briefly: the call reported for O=c1c(O)c(-c2ccccc2)oc2ccccc12 in this assay.
inactive

Answer briefly: the call reported for CC(=O)NS(=O)(=O)c1ccc(N)cc1 in this assay.
inactive

Can you look up the reported call for O=C1c2ccccc2C(=O)c2ccccc21 for me?
inactive

Assay result, entry N[C@@H](C(=O)N[C@@H]1C(=O)N2C(C(=O)O)=C(Cl)CS[C@H]12)c1ccccc1 — outcome?
inactive

Test call for this compound, please: CON
inactive

Test call for this compound, please: C=C(C)C1Cc2c(ccc(C(=O)O)c2O)O1 (configuration not stated)
inactive

Answer briefly: the call reported for CN1C(=O)CC[C@H]1c1cccnc1 in this assay.
inactive

Answer briefly: the call reported for CN1CCC[C@H]1c1cccnc1 in this assay.
inactive

Hi, sorry to bother you, what did the test record for CNC(=O)N(C)c1nnc(C(C)(C)C)s1 ?
inactive

# lookup: test call for O=C(O)CC[N+](=O)[O-]
inactive

Please indicate how the test categorized NC(=NCCCCCCN=C(N)N=C(N)Nc1ccc(Cl)cc1)N=C(N)Nc1ccc(Cl)cc1 .
active

Short answer needed: outcome of this test for C/C(=C\CO)CC[C@H](C)CCC[C@H](C)CCCC(C)C ?
active

// return assay outcome for CC(=O)OC1CCC2(O)CC1(C)CCC1C2CC1(C)C (configuration not stated)
inactive

Test call for this compound, please: ClC1C(Cl)C(Cl)C(Cl)C(Cl)C1Cl (configuration not stated)
inactive

Status in this test for Cc1cc(O)c2c(c1)C(=O)c1cccc(O)c1C2=O ?
inactive

I'd appreciate the recorded outcome for COC(=O)CC1C(C)(C)C(=O)C2CC3(O)C4=CC(=O)OC(c5ccoc5)C4(C)CCC3C1(C)C2=O (configuration not stated) from this test.
inactive

How was NC(Cc1ccc(Cl)cc1)C(=O)O (configuration not stated) classified in this test?
inactive

Given CCCc1ncc(C[n+]2ccccc2C)c(N)n1 , state the outcome it received in this test.
inactive

What is the recorded call for this compound in the test? O=c1c(O)c(-c2ccccc2)oc2cc(O)ccc12
inactive

Dear colleague, could you share the recorded outcome for CCCCN(CC)c1c([N+](=O)[O-])cc(C(F)(F)F)cc1[N+](=O)[O-] when you have a moment?
inactive
